# TARGET_OR_SYSTEM: kinase domain protein of RC kinase (Homo sapiens, UniProt Q56UN5)
# Sequence (Q56UN5 1061-1324 limits assumed): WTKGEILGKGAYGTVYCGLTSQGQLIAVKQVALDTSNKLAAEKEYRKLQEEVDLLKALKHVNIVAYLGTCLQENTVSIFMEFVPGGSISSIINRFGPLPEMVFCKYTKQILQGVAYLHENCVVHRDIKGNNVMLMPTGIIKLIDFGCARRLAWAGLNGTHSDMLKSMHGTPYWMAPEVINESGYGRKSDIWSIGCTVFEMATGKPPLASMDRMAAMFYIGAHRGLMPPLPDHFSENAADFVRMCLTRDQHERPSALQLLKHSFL
# METHOD_NOTES: Enzymatic assay for kinase inhibitory activity (Crebtide substrate, LANCE read-out)
# Type: biochemical
# EXPERIMENTAL_CONTEXT: compound at 1 μM

>  <COMPOUND_STRUCTURE>
COc1ccc(/C=N/c2[nH]nc(Nc3ccccc3)c2C(N)=O)cc1

>  <inhibition at 1 µM>
20 to 50%

$$$$
>  <COMPOUND_STRUCTURE>
Cc1cc(/C=N/c2[nH]nc(Nc3cccc(Cl)c3)c2C(N)=O)cc(C)c1O

>  <inhibition at 1 µM>
≥ 50%

$$$$
>  <COMPOUND_STRUCTURE>
N#Cc1c(Nc2cccc(Cl)c2)n[nH]c1/N=C/c1cccn1S(=O)(=O)c1ccccc1

>  <inhibition at 1 µM>
20 to 50%

$$$$
>  <COMPOUND_STRUCTURE>
N#Cc1c(Nc2cccc(Cl)c2)n[nH]c1/N=C/c1ccc(S(F)(F)(F)(F)F)cc1

>  <inhibition at 1 µM>
5 to 20%

$$$$
>  <COMPOUND_STRUCTURE>
Cn1nc(CSc2ccccc2)c(/C=N/c2[nH]nc(Nc3cccc(Cl)c3)c2C(N)=O)c1Cl

>  <inhibition at 1 µM>
20 to 50%

$$$$
>  <COMPOUND_STRUCTURE>
Cc1ccc(/C=N/c2[nH]nc(Nc3cccc(Cl)c3)c2C#N)c(O)c1

>  <inhibition at 1 µM>
≤ 5%

$$$$
